Test system: Liver
Assay: Biodistribution in NMRI mouse liver assessed per gram of tissue at 3.7 MBq/mL, iv after 60 mins by gamma counting
Assay type: ADME, organism-based
Settings: in vivo, 1 h
Here the recorded Drug uptake is given for each entry.
The response must be a number in % ID/g with no trailing unit.

Answered examples (3):
Request the reported Drug uptake associated with `Oc1ccc2nc(-c3ccc([18F])cc3)sc2c1`
11.9

Request the reported Drug uptake associated with `[11CH3]Nc1ccc(-c2nc3ccc(O)cc3s2)cc1`
5

Request the reported Drug uptake associated with `COc1ccc2nc(-c3ccc([18F])cc3)sc2c1`
6.7

Further cases:
Request the reported Drug uptake associated with `Cc1ccc2nc(-c3ccc([18F])cc3)sc2c1`
24.6

Taken from ChEMBL document CHEMBL1140929.
